experiment: in vivo; conditions: female, cynomolgus monkey, sc, 5 mg/kg/day, Average Concentration, Choroid

SMILES TEXT	SCALE UNIT	concentration at 29 day
Cc1cc(O)cc(C)c1C[C@H](NC(=O)[C@H](N)CCCNC(=N)N)C(=O)N[C@@H](CCCCN)c1nc(Cc2ccccc2)no1.Cl.Cl.Cl	ng/g	3210

----------
assay: in vivo; details: male, cynomolgus monkey, sc, 2 mg/kg/day, Average Concentration, Cornea

SMILES TEXT	SCALE UNIT	concentration at 29 day
Cc1cc(O)cc(C)c1C[C@H](NC(=O)[C@H](N)CCCNC(=N)N)C(=O)N[C@@H](CCCCN)c1nc(Cc2ccccc2)no1.Cl.Cl.Cl	ng/g	39.3
